tissue uptake at 24 h by entry:
test: in vivo; parameters: species or system mice; conditions: male, NOD.Cg-Rag1tm1Mom Il2rgtm1Wjl/SzJ (NRG), mouse, iv, total radioactivity, Biodistribution: Bone
Where a SMILES comes first, the peptide text is derived from it. Bridges are numbered along the chain shown (N, C = ends). [ ]: non-standard residue; d: D form. The star is where a group is joined. X3 = O=C(O)CN1CCN(CC(=O)O)CCN(CC(=O)N[C@@H](CS(=O)(=O)O)C(=O)N[C@@H](CCCCNC(=O)CCCc2ccc(Br)cc2)C(=O)*)CCN(CC(=O)O)CC1; X1 = O=C(O)CN1CCN(CC(=O)O)CCN(CC(=O)N[C@@H](CS(=O)(=O)O)C(=O)N[C@@H](CCCCNC(=O)CCCc2ccc(I)cc2)C(=O)*)CCN(CC(=O)O)CC1; 2Nal = N[C@@H](Cc1ccc2ccccc2c1)C(=O)O; Lys(iPr) = CC(C)NCCCC[C@H](N)C(=O)O
Express it in %ID/g; write the number only.

CC(C)NCCCC[C@H](NC(=O)[C@H]1CCC(=O)N[C@@H](CCCCNC(=O)[C@H](CCCCNC(=O)CCCc2ccc(Br)cc2)NC(=O)[C@H](CS(=O)(=O)O)NC(=O)CN2CCN(CC(=O)O)CCN(CC(=O)O)CCN(CC(=O)O)CC2)C(=O)N[C@@H](Cc2ccc(O)cc2)C(=O)N[C@@H](CCCCNC(C)C)C(=O)N[C@H](CCCNC(=N)N)C(=O)N[C@@H](Cc2ccc3ccccc3c2)C(=O)N[C@H](C)C(=O)N1)C(N)=O [[^177Lu]Lu-BL34L20, metal not drawn] (K(X3)Y[Lys(iPr)][dR][2Nal][dA][dE][Lys(iPr)]-NH2; lactam N-7) | 0.29

// query For CC(C)NCCCC[C@H](NC(=O)[C@H]1CCC(=O)N[C@@H](CCCCNC(=O)[C@H](CCCCNC(=O)CCCc2ccc(I)cc2)NC(=O)[C@H](CS(=O)(=O)O)NC(=O)CN2CCN(CC(=O)O)CCN(CC(=O)O)CCN(CC(=O)O)CC2)C(=O)N[C@@H](Cc2ccc(O)cc2)C(=O)N[C@@H](CCCCNC(C)C)C(=O)N[C@H](CCCNC(=N)N)C(=O)N[C@@H](Cc2ccc3ccccc3c2)C(=O)N[C@H](C)C(=O)N1)C(N)=O [[^177Lu]Lu-BL34L11, metal not drawn] (K(X1)Y[Lys(iPr)][dR][2Nal][dA][dE][Lys(iPr)]-NH2; lactam N-7) , what is its reported tissue uptake at 24 h?
// result 0.71

###

experiment: in vivo; design: species or system mice; conditions: male, NOD.Cg-Rag1tm1Mom Il2rgtm1Wjl/SzJ (NRG), mouse, iv, total radioactivity, Biodistribution: Spleen
Where a SMILES comes first, the peptide text is derived from it. Bridges are numbered along the chain shown (N, C = ends). [ ]: non-standard residue; d: D form. The star is where a group is joined. X4 = O=C(O)CN1CCN(CC(=O)O)CCN(CC(=O)N[C@@H](CS(=O)(=O)O)C(=O)NCCCC[C@H](NC(=O)CNC(=O)CCCc2ccc(Cl)cc2)C(=O)*)CCN(CC(=O)O)CC1; X3 = O=C(O)CN1CCN(CC(=O)O)CCN(CC(=O)N[C@@H](CS(=O)(=O)O)C(=O)N[C@@H](CCCCNC(=O)CCCc2ccc(Br)cc2)C(=O)*)CCN(CC(=O)O)CC1; X1 = O=C(O)CN1CCN(CC(=O)O)CCN(CC(=O)N[C@@H](CS(=O)(=O)O)C(=O)N[C@@H](CCCCNC(=O)CCCc2ccc(I)cc2)C(=O)*)CCN(CC(=O)O)CC1; 2Nal = N[C@@H](Cc1ccc2ccccc2c1)C(=O)O; Lys(iPr) = CC(C)NCCCC[C@H](N)C(=O)O
tissue uptake at 3 h by entry:
Express it in %ID/g; write the number only.

Worked examples, 2 molecules total:
CC(C)NCCCC[C@H](NC(=O)[C@H]1CCC(=O)N[C@@H](CCCCNC(=O)[C@H](CCCCNC(=O)[C@H](CS(=O)(=O)O)NC(=O)CN2CCN(CC(=O)O)CCN(CC(=O)O)CCN(CC(=O)O)CC2)NC(=O)CNC(=O)CCCc2ccc(Cl)cc2)C(=O)N[C@@H](Cc2ccc(O)cc2)C(=O)N[C@@H](CCCCNC(C)C)C(=O)N[C@H](CCCNC(=N)N)C(=O)N[C@@H](Cc2ccc3ccccc3c2)C(=O)N[C@H](C)C(=O)N1)C(N)=O [[68Ga]Ga-BL34T1, metal not drawn] (K(X4)Y[Lys(iPr)][dR][2Nal][dA][dE][Lys(iPr)]-NH2; lactam N-7) | 2.08
CC(C)NCCCC[C@H](NC(=O)[C@H]1CCC(=O)N[C@@H](CCCCNC(=O)[C@H](CCCCNC(=O)CCCc2ccc(I)cc2)NC(=O)[C@H](CS(=O)(=O)O)NC(=O)CN2CCN(CC(=O)O)CCN(CC(=O)O)CCN(CC(=O)O)CC2)C(=O)N[C@@H](Cc2ccc(O)cc2)C(=O)N[C@@H](CCCCNC(C)C)C(=O)N[C@H](CCCNC(=N)N)C(=O)N[C@@H](Cc2ccc3ccccc3c2)C(=O)N[C@H](C)C(=O)N1)C(N)=O [[^68Ga]Ga-BL34L11, metal not drawn] (K(X1)Y[Lys(iPr)][dR][2Nal][dA][dE][Lys(iPr)]-NH2; lactam N-7) | 2

// switching to the query molecule
// query For CC(C)NCCCC[C@H](NC(=O)[C@H]1CCC(=O)N[C@@H](CCCCNC(=O)[C@H](CCCCNC(=O)CCCc2ccc(Br)cc2)NC(=O)[C@H](CS(=O)(=O)O)NC(=O)CN2CCN(CC(=O)O)CCN(CC(=O)O)CCN(CC(=O)O)CC2)C(=O)N[C@@H](Cc2ccc(O)cc2)C(=O)N[C@@H](CCCCNC(C)C)C(=O)N[C@H](CCCNC(=N)N)C(=O)N[C@@H](Cc2ccc3ccccc3c2)C(=O)N[C@H](C)C(=O)N1)C(N)=O [[^177Lu]Lu-BL34L20, metal not drawn] (K(X3)Y[Lys(iPr)][dR][2Nal][dA][dE][Lys(iPr)]-NH2; lactam N-7) , what is its reported tissue uptake at 3 h?
// result 1.86
